- assayed_system: human c-Met (HGFR), full length, on the cell surface (human, UniProt P08581 25-1390)
- Sequence (P08581 25-1390 limits assumed): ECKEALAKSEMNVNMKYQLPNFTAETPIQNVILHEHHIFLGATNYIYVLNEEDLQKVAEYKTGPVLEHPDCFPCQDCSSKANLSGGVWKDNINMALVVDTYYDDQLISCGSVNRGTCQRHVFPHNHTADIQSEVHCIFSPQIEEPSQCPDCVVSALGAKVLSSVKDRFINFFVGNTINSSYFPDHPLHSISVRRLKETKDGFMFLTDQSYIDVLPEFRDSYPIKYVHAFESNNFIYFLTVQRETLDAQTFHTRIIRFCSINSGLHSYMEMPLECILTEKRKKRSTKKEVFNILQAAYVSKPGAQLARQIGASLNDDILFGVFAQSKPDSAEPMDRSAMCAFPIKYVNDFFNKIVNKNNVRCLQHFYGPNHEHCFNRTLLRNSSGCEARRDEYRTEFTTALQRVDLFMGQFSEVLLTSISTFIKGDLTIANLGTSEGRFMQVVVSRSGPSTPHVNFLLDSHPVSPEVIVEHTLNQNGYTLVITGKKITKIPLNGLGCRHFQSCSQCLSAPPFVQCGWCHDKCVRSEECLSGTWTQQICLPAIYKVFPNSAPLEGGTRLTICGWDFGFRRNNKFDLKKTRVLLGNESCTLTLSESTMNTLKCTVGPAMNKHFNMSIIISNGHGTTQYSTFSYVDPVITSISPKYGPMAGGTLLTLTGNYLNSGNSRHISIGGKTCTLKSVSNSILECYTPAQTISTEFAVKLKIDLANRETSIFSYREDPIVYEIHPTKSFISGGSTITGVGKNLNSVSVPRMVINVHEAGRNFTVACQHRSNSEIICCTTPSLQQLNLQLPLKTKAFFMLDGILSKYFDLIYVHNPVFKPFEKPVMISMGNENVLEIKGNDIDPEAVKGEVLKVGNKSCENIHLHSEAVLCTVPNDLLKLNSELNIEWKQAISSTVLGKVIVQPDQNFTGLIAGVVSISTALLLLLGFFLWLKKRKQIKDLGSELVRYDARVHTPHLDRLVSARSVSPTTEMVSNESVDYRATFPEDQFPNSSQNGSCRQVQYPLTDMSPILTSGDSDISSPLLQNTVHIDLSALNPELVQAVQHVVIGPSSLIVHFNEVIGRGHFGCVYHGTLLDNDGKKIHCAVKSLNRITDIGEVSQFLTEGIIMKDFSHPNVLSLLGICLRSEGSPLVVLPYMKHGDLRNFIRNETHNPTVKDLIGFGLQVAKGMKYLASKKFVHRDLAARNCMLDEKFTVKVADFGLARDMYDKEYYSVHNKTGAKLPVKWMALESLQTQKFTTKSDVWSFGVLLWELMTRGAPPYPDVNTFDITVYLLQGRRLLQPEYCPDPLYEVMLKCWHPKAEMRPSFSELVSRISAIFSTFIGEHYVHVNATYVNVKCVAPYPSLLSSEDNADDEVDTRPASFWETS
- method: cell-based or functional assay
Here, each record is paired with measured IC50 1, in vitro cytotoxicity, PC-3, -HGF data.
measured_quantity: IC50 1, in vitro cytotoxicity, PC-3, -HGF

{"binder": "ADC3d (antibody, human IgG1, kappa, V domains shown, vc-seco-DUBA linker-drug on the engineered cysteine at HC position 41 (Kabat); DAR 1.8) VH: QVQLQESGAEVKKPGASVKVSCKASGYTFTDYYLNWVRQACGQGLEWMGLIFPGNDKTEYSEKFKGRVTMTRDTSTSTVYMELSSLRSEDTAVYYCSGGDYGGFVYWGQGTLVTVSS VL: DIQLTQSPSSLSASVGDRVTITCGASENIYGALNWYQQKPGKAPKLLIYGATNLADGVPSRFSGSGSGTDFTLTISSLQPEDFATYYCQNVLSSPLTFGPGTKVDIKR", "assay_result": "0.04 nM"}
{"binder": "ADC3a (antibody, human IgG1, kappa, V domains shown, vc-seco-DUBA linker-drug on the engineered cysteine at HC position 41 (Kabat); DAR 1.9) VH: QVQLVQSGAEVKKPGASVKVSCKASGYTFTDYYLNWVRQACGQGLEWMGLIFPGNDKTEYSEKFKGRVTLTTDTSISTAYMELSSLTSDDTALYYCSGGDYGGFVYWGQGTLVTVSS VL: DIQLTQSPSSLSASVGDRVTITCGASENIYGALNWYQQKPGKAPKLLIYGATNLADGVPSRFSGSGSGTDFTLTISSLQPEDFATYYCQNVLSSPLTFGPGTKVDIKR", "assay_result": "0.05 nM"}
{"binder": "ADC3c (antibody, human IgG1, kappa, V domains shown, vc-seco-DUBA linker-drug on the engineered cysteine at HC position 41 (Kabat); DAR 1.8) VH: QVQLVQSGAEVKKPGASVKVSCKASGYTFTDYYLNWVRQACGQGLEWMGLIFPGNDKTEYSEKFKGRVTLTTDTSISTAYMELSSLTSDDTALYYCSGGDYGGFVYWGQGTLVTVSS VL: DIQMTQSPSSLSASVGDRVTITCGASENIYGALNWYQQKPGKAPKLLIYGATNLADGVPSRFSGSGSGTDFTLTISSLQPEDVATYYCQNVLSSPLTFGSGTKLEIKR", "assay_result": "0.04 nM"}
